These measurements were taken from patent US20210032351A1.

target: T1, human EGFRvIII-hFc protein (human, UniProt P00533 25-645); test: ELISA, EGFRvIII-hFc coated
T1 construct: extracellular domain; also called immunogen A; hFc-tagged EGFRvIII protein; not shown: human IgG Fc fragment (hFc) of the pCpC vector
Property: OD450 nm at 0.01 nM antibody; scope: individual binders
The figure you give is taken to be in OD450; do not add the unit.

Before answering, review these 2 worked examples.
Chimeric antibody 63A10 (antibody, human IgG1, V domains shown, also called c63A10A7; chimeric antibody c63A10A7) VH: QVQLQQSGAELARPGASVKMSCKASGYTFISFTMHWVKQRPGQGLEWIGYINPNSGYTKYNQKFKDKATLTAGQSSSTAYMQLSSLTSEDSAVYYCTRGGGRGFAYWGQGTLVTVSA VL: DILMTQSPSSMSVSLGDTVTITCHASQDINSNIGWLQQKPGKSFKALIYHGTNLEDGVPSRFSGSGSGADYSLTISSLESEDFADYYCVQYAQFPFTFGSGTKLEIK; 0.37
Chimeric antibody 75G7 (antibody, human IgG1, V domains shown, also called c75G7C6; chimeric antibody c75G7C6) VH: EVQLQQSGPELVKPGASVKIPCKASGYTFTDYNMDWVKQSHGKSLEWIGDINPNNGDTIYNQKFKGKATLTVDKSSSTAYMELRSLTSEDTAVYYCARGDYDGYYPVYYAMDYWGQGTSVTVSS VL: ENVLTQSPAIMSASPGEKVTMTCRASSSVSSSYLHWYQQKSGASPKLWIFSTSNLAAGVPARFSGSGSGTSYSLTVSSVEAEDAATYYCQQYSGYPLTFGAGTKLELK; 0.15

Dear colleague, I am looking for the recorded OD450 nm at 0.01 nM antibody of the following binder: Chimeric antibody 64F1 (antibody, human IgG1, V domains shown, also called clone 64F1F8) VH: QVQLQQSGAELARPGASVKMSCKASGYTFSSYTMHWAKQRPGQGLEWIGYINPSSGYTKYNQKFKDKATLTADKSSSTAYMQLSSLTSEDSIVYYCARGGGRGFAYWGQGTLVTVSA VL: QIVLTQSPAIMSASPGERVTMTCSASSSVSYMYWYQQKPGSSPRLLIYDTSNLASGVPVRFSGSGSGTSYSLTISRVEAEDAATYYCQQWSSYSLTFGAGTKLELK
0.35

OD450 nm at 0.01 nM antibody for Chimeric antibody 7E5 (antibody, human IgG1, V domains shown, also called clone 7E5-2A9) VH: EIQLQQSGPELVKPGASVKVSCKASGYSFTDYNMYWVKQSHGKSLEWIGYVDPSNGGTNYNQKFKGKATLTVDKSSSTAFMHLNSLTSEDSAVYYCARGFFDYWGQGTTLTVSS VL: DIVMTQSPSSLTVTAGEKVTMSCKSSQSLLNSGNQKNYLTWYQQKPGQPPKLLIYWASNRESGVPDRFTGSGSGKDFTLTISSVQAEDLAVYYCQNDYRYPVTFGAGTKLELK ?
0.19
